Values compiled from patent US6693112B2.

# Tested on: MCF-7 cells
# method: Cytotoxicity toward drug-sensitive MCF-7 cells (sulforhodamine B binding assay)
# Format: cell-based, human
# measurement-parameters: percent of MCF-7 cells killed by 10 μ/ml of the compound
Catalogue of Toxicity values
A number alone suffices; assume %.

Example cases with answers are listed next.
molecular_string=CCN(CC)CC(=O)Nc1c2c(nc3ccccc13)N(C)CC2 numeric_readout=30
molecular_string=CCCCN(CCCC)CC(=O)Nc1c2c(nc3ccccc13)N(C)CC2 numeric_readout=50

Req: Find the measured Toxicity of `CN1CCc2c1nc1ccccc1c2NC(=O)CN1CCCCC1` with MCF-7 cells as test system.
Resp: 51

Req: For MCF-7 cells, give Toxicity of the listed molecule: `CC(C)(C)c1cc(CCC(=O)Nc2c3c(nc4ccccc24)N(Cc2ccccc2)CC3)cc(C(C)(C)C)c1O`
Resp: 50
